test.settings: in water, 301.15 K

| smiles.repr | solubility (mole fraction) |
| --- | --- |
| O=C(O)c1ccco1 | 0.00886 |

---

test.settings: in water, 283.15 K

| smiles.repr | solubility (mole fraction) |
| --- | --- |
| O=C(O)c1ccccc1O | 0.0002 |

---

test.settings: in water, 329.15 K

| smiles.repr | solubility (mole fraction) |
| --- | --- |
| O=C(O)CCCC(=O)O | 0.398 |

---

# maps each entry to its solubility (mole fraction)
test.settings: in water, 298.15 K

| smiles.repr | solubility (mole fraction) |
| --- | --- |
| O=C(O)c1ccccc1C(=O)O | 0.000761 |
| O=C(O)CCCC(=O)O | 0.16 |
| O=C(O)CCCCCC(=O)O | 0.00756 |
| O=C(O)c1ccccc1O | 0.000333 |
| O=C(O)c1ccco1 | 0.00796 |

---

test.settings: in water, 311.15 K
We begin with a simple list: items and their reported solubility (mole fraction).
measured.metric: solubility (mole fraction)

| smiles.repr | measured.metric | endpoint.result |
| --- | --- | --- |
| O=C(O)c1ccco1 | solubility (mole fraction) | 0.0154 |
| O=C(O)c1ccccc1C(=O)O | solubility (mole fraction) | 0.00126 |

---

test.settings: in water, 339.15 K
measured.metric: solubility (mole fraction)

| smiles.repr | endpoint.result |
| --- | --- |
| O=C(O)c1ccccc1O | 0.00149 |

---

# solubility (mole fraction) annotations
test.settings: in water, 289.15 K

| smiles.repr | solubility (mole fraction) |
| --- | --- |
| O=C(O)CCCC(=O)O | 0.118 |
| O=C(O)c1ccco1 | 0.00483 |
| O=C(O)CCCCCC(=O)O | 0.00417 |

---

test.settings: in water, 318.15 K
Documented solubility (mole fraction) across a set of compounds
measured.metric: solubility (mole fraction)

| smiles.repr | endpoint.result |
| --- | --- |
| O=C(O)CCCCCC(=O)O | 0.0464 |
| O=C(O)CCCC(=O)O | 0.289 |
| O=C(O)c1ccccc1C(=O)O | 0.00164 |
| O=C(O)c1ccccc1O | 0.000677 |

---

test.settings: in water, 324.15 K

| smiles.repr | solubility (mole fraction) |
| --- | --- |
| O=C(O)c1ccccc1O | 0.000785 |

---

test.settings: in water, 281.15 K
Consider the following compounds and their measured solubility (mole fraction) readings.
measured.metric: solubility (mole fraction)

| smiles.repr | endpoint.result |
| --- | --- |
| O=C(O)CCCCCC(=O)O | 0.00211 |
| O=C(O)CCCC(=O)O | 0.0784 |

---

test.settings: in water, 327.98 K
measured.metric: solubility (mole fraction)

| smiles.repr | measured.metric | endpoint.result |
| --- | --- | --- |
| O=C(O)CCCCCC(=O)O | solubility (mole fraction) | 0.14 |

---

test.settings: in water, 302.65 K

| smiles.repr | solubility (mole fraction) |
| --- | --- |
| O=C(O)c1ccccc1C(=O)O | 0.000935 |

---

test.settings: in water, 328.15 K
measured.metric: solubility (mole fraction)

| smiles.repr | measured.metric | endpoint.result |
| --- | --- | --- |
| O=C(O)c1ccco1 | solubility (mole fraction) | 0.0907 |
| O=C(O)c1ccccc1O | solubility (mole fraction) | 0.000964 |
